- target-entity: D(2) dopamine receptor (Rattus norvegicus, UniProt P61169)
- Sequence (P61169 whole entry): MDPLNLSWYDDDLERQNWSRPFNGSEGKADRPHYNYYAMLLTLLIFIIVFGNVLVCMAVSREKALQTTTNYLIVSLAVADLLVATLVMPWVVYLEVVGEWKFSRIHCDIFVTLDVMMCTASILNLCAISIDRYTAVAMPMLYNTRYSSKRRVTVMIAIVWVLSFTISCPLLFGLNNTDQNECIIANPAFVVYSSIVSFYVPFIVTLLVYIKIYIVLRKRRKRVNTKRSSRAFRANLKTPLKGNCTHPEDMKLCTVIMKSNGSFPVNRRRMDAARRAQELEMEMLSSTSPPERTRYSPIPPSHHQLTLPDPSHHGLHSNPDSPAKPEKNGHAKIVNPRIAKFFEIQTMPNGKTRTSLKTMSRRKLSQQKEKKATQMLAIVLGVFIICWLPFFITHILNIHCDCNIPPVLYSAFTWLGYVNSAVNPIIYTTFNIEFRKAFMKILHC
endpoint-label: Ki (nM)
Enter your answer as a number in nM; do not include the unit.

Query: Find the measured Ki: item CCCN(CCC/C=C/c1ccc(O)c(OC)c1)C1CCc2nc(N)sc2C1 (racemic) , target or system D(2) dopamine receptor (Rattus norvegicus, UniProt P61169).
Result: 150

Query: Find the measured Ki: item CCCN(CCC/C=C/c1ccc(O)c(OC)c1)[C@H]1CCc2nc(N)sc2C1 , target or system D(2) dopamine receptor (Rattus norvegicus, UniProt P61169).
Result: 123

Query: Find the measured Ki: item CCCN(CCCCCCc1ccc(O)c(OC)c1)C1CCc2nc(N)sc2C1 (racemic) , target or system D(2) dopamine receptor (Rattus norvegicus, UniProt P61169).
Result: 58.5

====

- target-entity: UniProt P14416
- Sequence (P14416 whole entry): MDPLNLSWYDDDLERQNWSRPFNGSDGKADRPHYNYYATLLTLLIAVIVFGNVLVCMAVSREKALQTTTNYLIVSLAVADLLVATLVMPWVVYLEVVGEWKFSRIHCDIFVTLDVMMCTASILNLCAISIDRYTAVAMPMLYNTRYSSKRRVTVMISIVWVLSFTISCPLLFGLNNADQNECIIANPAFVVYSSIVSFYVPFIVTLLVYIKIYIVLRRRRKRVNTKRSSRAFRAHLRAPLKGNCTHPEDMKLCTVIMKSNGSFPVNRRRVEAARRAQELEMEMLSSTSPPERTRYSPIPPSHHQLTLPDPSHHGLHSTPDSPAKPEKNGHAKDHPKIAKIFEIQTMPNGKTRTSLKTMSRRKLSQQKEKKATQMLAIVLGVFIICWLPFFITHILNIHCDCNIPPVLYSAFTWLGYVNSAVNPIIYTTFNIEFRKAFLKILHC
- assay-summary: Agonist activity at human D2 dopamine receptor expressed in CHO cells by [35S]GTPgammaS binding assay
endpoint-label: EC50 (nM)
Enter your answer as a number in nM; do not include the unit.

Below are worked cases with known answers.
| cpd-smiles | endpoint-label | numeric-result |
| --- | --- | --- |
| CCCN(CCCCCc1cc(O)ccc1O)[C@H]1CCc2nc(N)sc2C1 | EC50 | 9.3 |
| CCCN(CCCCCc1ccc(O)c(O)c1)[C@H]1CCc2c(O)cccc2C1 | EC50 | 0.27 |
| CCCN(CCC/C=C/c1ccc(O)c(OC)c1)[C@H]1CCc2nc(N)sc2C1 | EC50 | 37.7 |
| CCCN(CCCCCc1ccc(O)c(OC)c1)[C@H]1CCc2nc(N)sc2C1 | EC50 | 2.09 |

Query: # get_value(readout='EC50', item= CCCN(CCCCCc1ccc(O)c(O)c1)[C@H]1CCc2nc(N)sc2C1 )
Result: 22.9

====

- target-entity: D(3) dopamine receptor (Homo sapiens)
- Sequence (P35462 whole entry): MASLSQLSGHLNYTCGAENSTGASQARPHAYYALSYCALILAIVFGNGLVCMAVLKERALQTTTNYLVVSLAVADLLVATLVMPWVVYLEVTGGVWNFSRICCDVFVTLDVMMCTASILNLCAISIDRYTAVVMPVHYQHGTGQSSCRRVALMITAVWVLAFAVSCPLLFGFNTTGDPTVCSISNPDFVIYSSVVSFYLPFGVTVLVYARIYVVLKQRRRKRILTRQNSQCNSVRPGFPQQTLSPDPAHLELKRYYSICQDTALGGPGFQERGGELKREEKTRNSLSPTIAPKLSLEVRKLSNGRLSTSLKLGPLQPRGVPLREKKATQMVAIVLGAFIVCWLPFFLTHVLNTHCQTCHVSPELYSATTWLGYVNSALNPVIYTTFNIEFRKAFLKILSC
- assay-summary: Agonist activity at human D3 dopamine receptor expressed in CHO cells by [35S]GTPgammaS binding assay
Criterion: EC50 strictly less than 1 nM. Met: rule met. Not met: rule not met.

Check out these entries, answers already filled in.
| cpd-smiles | class |
| --- | --- |
| CCCN(CCC/C=C/c1ccc(O)c(OC)c1)[C@H]1CCc2nc(N)sc2C1 | rule not met |
| CCCN(CCCCCc1ccc(O)c(O)c1)[C@H]1CCc2nc(N)sc2C1 | rule not met |
| CCCN(CCCCCc1ccc(O)c(OC)c1)[C@H]1CCc2nc(N)sc2C1 | rule met |
| CCCN(CCCCCc1cc(O)ccc1O)[C@H]1CCc2nc(N)sc2C1 | rule not met |

Lab note: next compound to report on.
Query: Bench note: check whether CCCN(CCCCCc1ccc(O)c(O)c1)[C@H]1CCc2c(O)cccc2C1 shows EC50 below 1 nM
Result: rule met

Numbers sourced from ChEMBL document CHEMBL4428089.
